B1: LOC100129726 (parent)
chain: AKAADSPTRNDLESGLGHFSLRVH

- Variants of: B1
- TEST_DETAILS: protein stability index of a GFP-peptide fusion (GPS, HEK-293T) (PSI 1-6); higher = more stable;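 further: lentivirally expressed fusions sorted by FACS into six bins by GFP to DsRed ratio, PSI derived from sequencing read proportions per bin multiplied by bin number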
- COND: c terminus: a fixed tail appended
Quick reference for protein stability index among some variants
Could you respond with only the numeric value?

Field: example entries. Status: answers known.
BIOSEQUENCE: AWAADSPTRNDLESGLGHFSLRVH [K2W]
VALUE_KIND: protein stability index
OBSERVED_VALUE: 1.66
//
BIOSEQUENCE: AKAADSPTRNDLYSGLGHFSLRVH [E13Y]
VALUE_KIND: protein stability index
OBSERVED_VALUE: 1.38
//
BIOSEQUENCE: AKAADSPTRNDLESGLGHFSYRVH [L21Y]
VALUE_KIND: protein stability index
OBSERVED_VALUE: 3.06
//
BIOSEQUENCE: AKAADSPTRNDLESGLGHYSLRVH [F19Y]
VALUE_KIND: protein stability index
OBSERVED_VALUE: 3.16

Data point: AKAADSPTRNDLESGLGHFSLRTH [V23T] ; protein stability index = 3.49

Data point: AKAADSPTRIDLESGLGHFSLRVH [N10I] ; protein stability index = 1.78
